target_system: HLA-A*01:01
protocol: IEDB peptide-MHC binding, purified MHC/direct/fluorescence; filed as Kd, often an IC50 or EC50 that approximates it; bounds were set here for any values at or beyond the usual limits of such assays
stated_conditions: source organism: Yersinia pestis Antiqua
pKd: −log10 of the molar value.

{"sequence_text": "RYQRMTGGY", "pKd": "≤ 4.70"}

====

target_system: HLA-B*58:01
protocol: IEDB peptide-MHC binding, purified MHC/direct/fluorescence; filed as Kd, often an IC50 or EC50 that approximates it; bounds were set here for any values at or beyond the usual limits of such assays
stated_conditions: source organism: Giardia lamblia ATCC 50803
pKd: −log10 of the molar value.

{"sequence_text": "EIRHRSGIQ", "pKd": "≤ 4.70"}
{"sequence_text": "WSDLNTTDF", "pKd": "≤ 4.70"}
{"sequence_text": "IARLVYKAR", "pKd": "≤ 4.70"}

====

target_system: HLA-B*07:02
protocol: IEDB peptide-MHC binding, purified MHC/competitive/radioactivity; filed as Kd, often an IC50 or EC50 that approximates it; bounds were set here for any values at or beyond the usual limits of such assays
stated_conditions: source organism: Mammarenavirus lassaense
pKd: −log10 of the molar value.
readout_name: pKd

{"sequence_text": "YPSMFEKHI", "observed_value": 4.79}

====

target_system: HLA-B*15:09
protocol: IEDB peptide-MHC binding, purified MHC/competitive/fluorescence; filed as Kd, often an IC50 or EC50 that approximates it; bounds were set here for any values at or beyond the usual limits of such assays
stated_conditions: source organism: Vaccinia virus Copenhagen
readout_name: Kd (µM)

{"sequence_text": "WENGFKVVL", "target_system": "HLA-B*15:09", "observed_value": 3.09}

====

target_system: HLA-B*15:03
protocol: IEDB peptide-MHC binding, purified MHC/competitive/radioactivity; filed as Kd, often an IC50 or EC50 that approximates it; bounds were set here for any values at or beyond the usual limits of such assays
stated_conditions: source organism: Vaccinia virus WR
pKd: −log10 of the molar value.

{"sequence_text": "FKFNSQVSI", "pKd": 8.91}
{"sequence_text": "HLYNILNNI", "pKd": 5.85}
{"sequence_text": "KTLKYSNKI", "pKd": 6.35}
{"sequence_text": "SQVSSTELF", "pKd": 8.74}
{"sequence_text": "RQSSCKMAL", "pKd": 7.73}
{"sequence_text": "KSVEDVSAF", "pKd": 7.87}
{"sequence_text": "ALTKNYLSF", "pKd": 7.40}
{"sequence_text": "AKSKFPRSM", "pKd": 9.58}
{"sequence_text": "NKFFEVIFF", "pKd": 7.73}

====

target_system: HLA-A*03:19
protocol: IEDB peptide-MHC binding, purified MHC/competitive/fluorescence; filed as Kd, often an IC50 or EC50 that approximates it; bounds were set here for any values at or beyond the usual limits of such assays
stated_conditions: source organism: Yersinia pestis Nepal516
pKd: −log10 of the molar value.
readout_name: pKd

{"sequence_text": "RAMRMVYYL", "target_system": "HLA-A*03:19", "observed_value": 6.69}

====

target_system: HLA-B*18:01
protocol: IEDB peptide-MHC binding, purified MHC/direct/fluorescence; filed as Kd, often an IC50 or EC50 that approximates it; bounds were set here for any values at or beyond the usual limits of such assays
stated_conditions: source organism: Zaire ebolavirus
pKd: −log10 of the molar value.

{"sequence_text": "GHMMVIFRL", "target_system": "HLA-B*18:01", "pKd": "≤ 4.70"}

====

target_system: HLA-B*57:01
protocol: IEDB peptide-MHC binding, purified MHC/competitive/fluorescence; filed as Kd, often an IC50 or EC50 that approximates it; bounds were set here for any values at or beyond the usual limits of such assays
stated_conditions: source organism: Human immunodeficiency virus 1

{"sequence_text": "RSLFNTVAVLY", "Kd (nM)": 676}

====

target_system: HLA-A*02:03
protocol: IEDB peptide-MHC binding, purified MHC/direct/fluorescence; filed as Kd, often an IC50 or EC50 that approximates it; bounds were set here for any values at or beyond the usual limits of such assays
stated_conditions: source organism: Burkholderia mallei ATCC 23344
pKd: −log10 of the molar value.

{"sequence_text": "LARFPCNVI", "pKd": "≤ 4.70"}

====

target_system: HLA-A*11:01
protocol: IEDB peptide-MHC binding, purified MHC/competitive/radioactivity; filed as Kd, often an IC50 or EC50 that approximates it; bounds were set here for any values at or beyond the usual limits of such assays
stated_conditions: source organism: SARS coronavirus Tor2
pKd: −log10 of the molar value.

{"sequence_text": "SMQNCLLRLK", "pKd": 7.75}
{"sequence_text": "GFPFNKWGK", "pKd": 6.18}
{"sequence_text": "AVVYRGTTTY", "pKd": 6.31}
{"sequence_text": "ATEGALNTPK", "pKd": 8.33}
{"sequence_text": "GVTFQGKFKK", "pKd": 6.27}
{"sequence_text": "AIYVFCISLK", "pKd": 6.31}
{"sequence_text": "TSTGNYNYK", "pKd": 7.68}
{"sequence_text": "DFAVSKGFFK", "pKd": 6.97}
{"sequence_text": "NLKQLPFFYY", "pKd": 5.27}
{"sequence_text": "VLLRKNGNK", "pKd": 5.78}
{"sequence_text": "RLCLFDRYFK", "pKd": 7.25}
{"sequence_text": "TLNVLAWLY", "pKd": 7.60}
{"sequence_text": "TTTSTALGK", "pKd": 7.50}
{"sequence_text": "FFTYLCGFIK", "pKd": 6.02}
{"sequence_text": "TQWSLFFFVY", "pKd": 6.45}

====

target_system: HLA-B*51:01
protocol: IEDB peptide-MHC binding, purified MHC/competitive/radioactivity; filed as Kd, often an IC50 or EC50 that approximates it; bounds were set here for any values at or beyond the usual limits of such assays
stated_conditions: source organism: Dengue virus 4 Philippines/H241/1956

{"sequence_text": "MAYMIGQTGI", "target_system": "HLA-B*51:01", "Kd": "57.1 nM"}

====

target_system: HLA-A*26:01
protocol: IEDB peptide-MHC binding, purified MHC/direct/fluorescence; filed as Kd, often an IC50 or EC50 that approximates it; bounds were set here for any values at or beyond the usual limits of such assays
stated_conditions: source organism: Vibrio cholerae
readout_name: Kd

{"sequence_text": "AYYWNQNGF", "observed_value": "≥ 20 µM"}

====

target_system: HLA-A*68:01
protocol: IEDB peptide-MHC binding, purified MHC/competitive/radioactivity; filed as Kd, often an IC50 or EC50 that approximates it; bounds were set here for any values at or beyond the usual limits of such assays
stated_conditions: source organism: Mammarenavirus machupoense
pKd: −log10 of the molar value.

{"sequence_text": "EKFGHLCKYH", "pKd": "≤ 4.15"}

====

target_system: HLA-B*08:01
protocol: IEDB peptide-MHC binding, purified MHC/direct/fluorescence; filed as Kd, often an IC50 or EC50 that approximates it; bounds were set here for any values at or beyond the usual limits of such assays
stated_conditions: source organism: Haemophilus influenzae

{"sequence_text": "LAEQFSGEY", "Kd": "≥ 20 µM"}

====

target_system: HLA-A*02:01
protocol: IEDB peptide-MHC binding, purified MHC/competitive/fluorescence; filed as Kd, often an IC50 or EC50 that approximates it; bounds were set here for any values at or beyond the usual limits of such assays
stated_conditions: source organism: Orthohantavirus sinnombreense
pKd: −log10 of the molar value.

{"sequence_text": "LFPELECFF", "target_system": "HLA-A*02:01", "pKd": "≤ 4.70"}

====

target_system: HLA-B*07:02
protocol: IEDB peptide-MHC binding, purified MHC/direct/fluorescence; filed as Kd, often an IC50 or EC50 that approximates it; bounds were set here for any values at or beyond the usual limits of such assays
stated_conditions: source organism: Yersinia pestis Antiqua

{"sequence_text": "RYQRMTGGY", "Kd": "≥ 20 µM"}

====

target_system: HLA-A*69:01
protocol: IEDB peptide-MHC binding, purified MHC/competitive/fluorescence; filed as Kd, often an IC50 or EC50 that approximates it; bounds were set here for any values at or beyond the usual limits of such assays
stated_conditions: source organism: Streptococcus pneumoniae TIGR4
pKd: −log10 of the molar value.
readout_name: pKd

{"sequence_text": "CLSDEINHV", "readout_name": "pKd", "observed_value": "≤ 4.70"}

====

target_system: HLA-A*69:01
protocol: IEDB peptide-MHC binding, purified MHC/direct/fluorescence; filed as Kd, often an IC50 or EC50 that approximates it; bounds were set here for any values at or beyond the usual limits of such assays
stated_conditions: source organism: Burkholderia mallei
pKd: −log10 of the molar value.
readout_name: pKd

{"sequence_text": "FEIGNGDAG", "readout_name": "pKd", "observed_value": "≤ 4.70"}
